Target: KRAS WT (Homo sapiens (Human), UniProt P01116+P62937)
Sequence (P01116-2 other isoform, or with tags, fused parts or gaps): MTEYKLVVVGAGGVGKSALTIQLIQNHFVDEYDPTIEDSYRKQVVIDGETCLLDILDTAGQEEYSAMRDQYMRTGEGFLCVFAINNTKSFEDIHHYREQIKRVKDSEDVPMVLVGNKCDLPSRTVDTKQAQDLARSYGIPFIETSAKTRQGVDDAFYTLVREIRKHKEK
Sequence (P62937 whole entry): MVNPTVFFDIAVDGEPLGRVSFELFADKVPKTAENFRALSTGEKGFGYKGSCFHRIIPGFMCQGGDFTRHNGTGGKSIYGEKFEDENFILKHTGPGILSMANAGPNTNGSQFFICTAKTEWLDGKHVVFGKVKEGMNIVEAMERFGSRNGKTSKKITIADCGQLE
Test: Ras-Raf (BRAF RBD) disruption / FRET / MOA assay, KRAS WT
Assay type: biochemical
Details: read-out: IC50* KRAS WT FRET data
pIC50: −log10 of the molar value.
Would you mind telling me the reported pIC50 of each entry?

{"Compound": "C#CC(=O)N1CC[C@H](C(=O)N(C)[C@H](C(=O)N[C@H]2Cc3cc(O)cc(c3)-c3ccc4c(c3)c(c(-c3cnccc3[C@H](C)OC)n4CC)CC(C)(C)COC(=O)[C@@H]3CCCN(N3)C2=O)C(C)C)C1 [Example A150]", "pIC50": "6.00 to 7.00"}

Attention now shifts to the item below.
API: value(readout= pIC50, system= KRAS WT (Homo sapiens (Human), UniProt P01116+P62937), query= C/C=C(\C)S(=O)(=O)N1CC[C@H](C(=O)N(C)[C@H](C(=O)N[C@H]2Cc3cc(O)cc(c3)-c3ccc4c(c3)c(c(-c3cccnc3[C@H](C)OC)n4CC)CC(C)(C)COC(=O)[C@@H]3CCCN(N3)C2=O)C(C)C)C1 (atropisomer, axis not shown) [Example A306] )
6.00 to 7.00
